# EXPERIMENTAL_SYSTEM: T1, SARS-CoV-2 Spike Glycoprotein S1 (subunit 1) (SARS-CoV-2, UniProt P0DTC2 16-685)
# T1 construct: also called S1 Monomer; SARS-CoV-2 S1
# EXPERIMENT_DESCRIPTION: ELISA binding titration
MEASURED_ENDPOINT: EC50 (nM)
I only need the number, in nM, no unit after it.

Exercise: Given the binder 1-22 (antibody, V domains shown) VH: EVQLLESGGGLVQPGGSLRLSCAASGFTFSSYAMNWVRQAPGKGLEWVSIISGSGGSTYYADSVKGRFTISRDNSKNTLYLQMNSLRAEDTAVYYCAREGYRDYLWYFDLWGQGTLVTVSS VL: QSALTQPASVSGSPGQSITISCTGTSTDVGSYNLVSWYQQHPGKAPKLMIYEGSQRPSGVSNRFSGSKSGNTASLTISGLQAEDEADYYCCSYAGSSTVFGGGTKLTVL , write its reported EC50.
Solution: 6.55
